System Tested: aromatase (CYP19) (Homo sapiens, UniProt P11511)
Sequence (P11511 1-503): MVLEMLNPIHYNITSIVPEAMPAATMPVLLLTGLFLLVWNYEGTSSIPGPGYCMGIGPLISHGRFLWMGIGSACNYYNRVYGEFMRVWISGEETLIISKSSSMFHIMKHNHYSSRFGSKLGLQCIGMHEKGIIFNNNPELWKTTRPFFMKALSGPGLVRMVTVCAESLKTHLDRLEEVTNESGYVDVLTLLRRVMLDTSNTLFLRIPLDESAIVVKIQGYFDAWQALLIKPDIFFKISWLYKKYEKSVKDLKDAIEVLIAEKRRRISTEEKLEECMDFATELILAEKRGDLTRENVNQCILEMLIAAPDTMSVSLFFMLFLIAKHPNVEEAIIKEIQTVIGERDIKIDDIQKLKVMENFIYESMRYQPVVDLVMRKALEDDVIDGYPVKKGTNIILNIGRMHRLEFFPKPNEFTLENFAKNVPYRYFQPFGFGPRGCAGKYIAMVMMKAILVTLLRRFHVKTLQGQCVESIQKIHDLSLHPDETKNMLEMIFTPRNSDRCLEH
Value Kind: IC50 (µM)

molecule="CC(C)COC(=O)N1Cc2[nH]c3ccccc3c2C[C@H]1C(=O)O [Compound 7b]" numeric_readout=72
molecule="COC(=O)[C@@H]1Cc2c([nH]c3ccccc23)CN1C(=O)OCC(C)C [Compound 3b]" numeric_readout=64.5
